Here the recorded interaction score is given for each entry.
- target.entity: T1, 4H568-bN
- T1 chain: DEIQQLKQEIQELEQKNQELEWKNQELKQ
- test.description: two-hybrid library CCNG1;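 also: natural log of median RNA to DNA barcode read ratio; higher means stronger binding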
I only need the number, thanks.

## Input Please look up its interaction score: DEIQQLEQKNQELKQEIQELKWKIQELKQ [4H462-bN]
## Output 0.685

## Input Please look up its interaction score: DKNQQLKQKIQELEQEIQELEWENQELEQ [4H3843-bN]
## Output -0.869

## Input Please look up its interaction score: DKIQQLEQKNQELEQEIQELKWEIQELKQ [4H2442-bN]
## Output -0.89

## Input Please look up its interaction score: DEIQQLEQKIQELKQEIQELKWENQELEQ [4H331-bN]
## Output -1.41

## Input Please look up its interaction score: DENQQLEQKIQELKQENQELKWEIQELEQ [4H1369-bN]
## Output -1.26

Further cases:
## Input Please look up its interaction score: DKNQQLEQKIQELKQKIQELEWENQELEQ [4H3427-bN]
## Output -0.0377

## Input Please look up its interaction score: DEIQQLEQKIQELKQKNQELEWEIQELKQ [4H370-bN]
## Output 0.649
